Target: T1, human CD81 on CD81-expressing cells (Jurkat E6.1, human PBMC, Ramos) (human, UniProt P60033 1-236)
T1 sequence: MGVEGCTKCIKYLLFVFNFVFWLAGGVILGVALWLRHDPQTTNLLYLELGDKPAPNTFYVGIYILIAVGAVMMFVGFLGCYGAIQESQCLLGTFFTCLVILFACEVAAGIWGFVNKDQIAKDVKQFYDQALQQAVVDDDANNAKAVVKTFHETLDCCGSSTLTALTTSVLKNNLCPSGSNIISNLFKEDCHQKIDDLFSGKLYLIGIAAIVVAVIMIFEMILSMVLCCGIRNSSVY
Assay: cell-based or functional assay
quantity.kind: Jurkat chemotaxis (% of control IgG4) at 0.001 µg/mL (%)
# unit: % | format: bare number

003-A11 (antibody, human IgG4 S228P, lambda, V domains shown, IgG4 S228P) VH: EVQLLESGGGLVQPGGSLRLSCAASGFTFGSNYMSWVRQAPGKGLEWVSYISSSSTYTDYADSVKGRFTISRDNSKNTLYLQMNSLRAEDTAVYYCARYSYGRDNFDYWGQGTLVTVSS VL: QSVLTQPPSASGTPGQRVTISCTGSTSNIGAGYDTHWYQQLPGTAPKLLIYGNSNRPSGVPDRFSGSKSGTSASLAISGLRSEDEADYYCQSYDTNLSGWVFGGGTKLTVLG ... 91
002-D10 (antibody, human IgG4 S228P, lambda, V domains shown, IgG4 S228P) VH: EVQLLESGGGLVQPGGSLRLSCAASGFTFSSNYMSWVRQAPGKGPEWVSYISSSSTYTDYADSVKGRFTISRDNSKNTLYLQMNSLRAEDTAVYYCARYSYGRDNFDYWGQGTLVTVSS VL: QSVLTQPSSASGTPGQRVTISCTGSTSNIGAGYDTHWYQQLPGTAPKLLIYGNSNRPSGVPDRFSGSKSGTSASLAVSGLRSEDEAEYYCQSYDTNLSGWVFGGGTKLTVLG ... 97

Request: Looking for the measured Jurkat chemotaxis (% of control IgG4) at 0.001 µg/mL of 002-A07 N113Q (antibody, human IgG4 S228P, lambda, V domains shown, IgG4 S228P; glycosylation site mutant of 002-A07 VL) VH: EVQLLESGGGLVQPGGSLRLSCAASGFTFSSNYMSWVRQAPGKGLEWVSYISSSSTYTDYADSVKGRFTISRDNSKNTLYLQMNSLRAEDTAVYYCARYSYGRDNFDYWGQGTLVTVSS VL: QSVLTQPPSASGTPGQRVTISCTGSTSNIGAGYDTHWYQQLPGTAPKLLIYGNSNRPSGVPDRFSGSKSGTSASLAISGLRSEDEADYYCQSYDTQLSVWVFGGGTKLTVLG , can you help?
Result: 104
